# ASSAY INFO: Pharmacokinetics in the rabbit after IV and IN administration
# Type: in vivo, New Zealand White rabbits
# PARTICULARS: male, New Zealand White, plasma, inhaled or intranasal, 0.3 mg/kg, IN low dose 0.3 mg/kg (10 mg/ml), n = 3, Mean ± SD
READOUT: Cmax
State the result as a value with its unit after it.

Lookup: What does the data say about its Cmax? Entry: Cc1cc(C[C@@H](NC(=O)N2CCC(c3cc4ccccc4[nH]c3=O)CC2)C(=O)N2CCN(C3CCN(C)CC3)CC2)cc2cn[nH]c12 [Compound I]
Found: 120 nM

###

# ASSAY INFO: Pharmacokinetics in the rabbit after IV and IN administration
# Type: in vivo, New Zealand White rabbits
# PARTICULARS: male, New Zealand White, plasma, inhaled or intranasal, IN low dose 0.3 mg/kg (10 mg/ml), n = 3, Mean ± SD
READOUT: AUC
State the result as a value with its unit after it.

Lookup: What does the data say about its AUC? Entry: Cc1cc(C[C@@H](NC(=O)N2CCC(c3cc4ccccc4[nH]c3=O)CC2)C(=O)N2CCN(C3CCN(C)CC3)CC2)cc2cn[nH]c12
Found: 0.14 µM·h
